Quick reference for normalized RNA/DNA level without ligand (log10) among some variants
B1: library; a variant is named by its letters at N, in order (parent)
chain: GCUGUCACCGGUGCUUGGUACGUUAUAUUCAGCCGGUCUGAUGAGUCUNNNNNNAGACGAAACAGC

- Variants of: B1
- Assay: normalized RNA/DNA level without ligand (relative to sTRSVctl = 100) (log10 (% of sTRSVctl)); HEK293T overexpressing SLC46A1; higher = less ribozyme self-cleavage, higher mRNA level
- Experimental parameters: without (6R,S)-folinic acid; ligand present: no
Measured property: normalized RNA/DNA level without ligand (log10)

[
  {
    "Sequence variant": "CCGUGA",
    "Value": 2.03
  },
  {
    "Sequence variant": "GUGAGA",
    "Value": 1.97
  },
  {
    "Sequence variant": "UGGACG",
    "Value": 1.78
  },
  {
    "Sequence variant": "AACUUA",
    "Value": 1.96
  },
  {
    "Sequence variant": "CUCUAA",
    "Value": 2
  },
  {
    "Sequence variant": "GCUGUC",
    "Value": 2.05
  },
  {
    "Sequence variant": "AUCCAU",
    "Value": 1.99
  },
  {
    "Sequence variant": "AGGCCU",
    "Value": 2.07
  },
  {
    "Sequence variant": "GAGAGA",
    "Value": 1.95
  },
  {
    "Sequence variant": "GUGCUC",
    "Value": 2.05
  },
  {
    "Sequence variant": "AAAGUC",
    "Value": 2.07
  },
  {
    "Sequence variant": "GGUGGG",
    "Value": 2.03
  },
  {
    "Sequence variant": "GCAAUA",
    "Value": 2.01
  },
  {
    "Sequence variant": "AUAAUU",
    "Value": 1.99
  },
  {
    "Sequence variant": "CUGGGU",
    "Value": 2.03
  },
  {
    "Sequence variant": "ACCGAU",
    "Value": 1.97
  },
  {
    "Sequence variant": "UUGCCC",
    "Value": 2.04
  },
  {
    "Sequence variant": "AAAGAA",
    "Value": 1.92
  },
  {
    "Sequence variant": "AUGAAC",
    "Value": 1.95
  },
  {
    "Sequence variant": "UCGUAG",
    "Value": 1.84
  },
  {
    "Sequence variant": "UGGCGC",
    "Value": 2.08
  },
  {
    "Sequence variant": "GCCAUU",
    "Value": 2.04
  },
  {
    "Sequence variant": "GUAGAU",
    "Value": 1.95
  },
  {
    "Sequence variant": "CAGAGU",
    "Value": 2
  },
  {
    "Sequence variant": "UACGCA",
    "Value": 1.99
  },
  {
    "Sequence variant": "UGUGUA",
    "Value": 1.89
  },
  {
    "Sequence variant": "AUAUUU",
    "Value": 2.01
  },
  {
    "Sequence variant": "CACGCA",
    "Value": 2.03
  },
  {
    "Sequence variant": "GUCAAU",
    "Value": 1.98
  },
  {
    "Sequence variant": "AAAUCU",
    "Value": 2.04
  },
  {
    "Sequence variant": "UGGCUU",
    "Value": 2.02
  },
  {
    "Sequence variant": "CUCACA",
    "Value": 2.04
  },
  {
    "Sequence variant": "AUGCAA",
    "Value": 1.96
  },
  {
    "Sequence variant": "ACACGU",
    "Value": 2.02
  },
  {
    "Sequence variant": "CGUCUA",
    "Value": 2
  },
  {
    "Sequence variant": "UGCCAC",
    "Value": 1.99
  },
  {
    "Sequence variant": "UACAGA",
    "Value": 1.91
  },
  {
    "Sequence variant": "UCUGCC",
    "Value": 1.98
  },
  {
    "Sequence variant": "UCUUUA",
    "Value": 2
  },
  {
    "Sequence variant": "AGAUUG",
    "Value": 1.89
  },
  {
    "Sequence variant": "CGCGUA",
    "Value": 1.99
  },
  {
    "Sequence variant": "GCUACA",
    "Value": 2.02
  },
  {
    "Sequence variant": "UUUCCA",
    "Value": 2.01
  },
  {
    "Sequence variant": "UAAGUC",
    "Value": 2.06
  },
  {
    "Sequence variant": "CACGGA",
    "Value": 1.99
  },
  {
    "Sequence variant": "AGCCUU",
    "Value": 2.04
  }
]
